The measured values listed here are drawn from patent US9309213B2.

Molecular target: HIV-1 protease (Human immunodeficiency virus type 1 group M subtype B, UniProt P04585)
Construct: The HIV aspartic protease plays a central role in the life cycle of the virus; It cleaves the virally encoded polyprotein
Assay: HIV-1 protease enzyme inhibitory assay (protocol of Toth and Marshall)
Assay type: biochemical
Settings: read-out: Ki
PROPERTY: Ki (nM)

* COc1ccc(S(=O)(=O)N(CC(C)C)C[C@@H](O)[C@H](Cc2ccccc2)NC(=O)O[C@@H]2C[C@@H]3[C@H](OC)CO[C@@H]3C2)cc1 [Inhibitor 19b] | 0.95

* * *

EC50 listing for selected compounds.
Test system: HIV-1MDR/TM
Assay: microbe, parasite or virus in culture
Format: cell-based
Settings: Table 4; HIV-1MDR/TM (X4), PHA-PBMs, p24 Gag
PROPERTY: EC50 (µM)

• COC(=O)N[C@@H]1CO[C@@H]2C[C@H](OC(=O)N[C@@H](Cc3ccccc3)[C@H](O)CN(CC(C)C)S(=O)(=O)c3ccc(OC)cc3)C[C@H]12 [Inhibitor 19l] = 0.074
• COC(=O)N[C@H]1CO[C@@H]2C[C@H](OC(=O)N[C@@H](Cc3ccccc3)[C@H](O)CN(CC(C)C)S(=O)(=O)c3ccc(OC)cc3)C[C@H]12 [Inhibitor 19m] = 0.024

* * *

Each entry below carries its recorded Ki.
Biological target: HIV-1 protease (Human immunodeficiency virus type 1 group M subtype B, UniProt P04585)
Construct: The HIV aspartic protease plays a central role in the life cycle of the virus; It cleaves the virally encoded polyprotein
Experiment: HIV-1 protease enzyme inhibitory assay (protocol of Toth and Marshall)
Type: biochemical
Settings: Table 1; read-out: Ki
PROPERTY: Ki (nM)

* CC(C)CN(C[C@@H](O)[C@H](Cc1ccccc1)NC(=O)O[C@@H]1C[C@@H]2[C@@H](O)CO[C@@H]2C1)S(=O)(=O)c1ccc(N)cc1 | 0.006
* COc1ccc(S(=O)(=O)N(CC(C)C)C[C@@H](O)[C@H](Cc2ccccc2)NC(=O)O[C@@H]2C[C@@H]3[C@@H](C)CO[C@@H]3C2)cc1 [Inhibitor 19f] | 0.017
* CC(C)CN(C[C@@H](O)[C@H](Cc1ccccc1)NC(=O)O[C@@H]1C[C@@H]2[C@H](O)CO[C@@H]2C1)S(=O)(=O)c1ccc(CO)cc1 | 0.06
* CC(C)CN(C[C@@H](O)[C@H](Cc1ccccc1)NC(=O)O[C@@H]1C[C@@H]2[C@H](O)CO[C@@H]2C1)S(=O)(=O)c1ccc(N)cc1 [drawing 10] | 0.079
* COc1ccc(S(=O)(=O)N(CC(C)C)C[C@@H](O)[C@H](Cc2ccccc2)NC(=O)O[C@@H]2C[C@@H]3[C@H](OC)CO[C@@H]3C2)cc1 [Inhibitor 19b] | 0.39
* COc1ccc(S(=O)(=O)N(CC(C)C)C[C@@H](O)[C@H](Cc2ccccc2)NC(=O)O[C@@H]2C[C@@H]3C(=O)CO[C@@H]3C2)cc1 [Inhibitor 19a] | 0.95

* * *

Tested on: HIV-1ERS104pre (wild type)
Assay: Antiviral assay in PHA-PBMs, inhibition of p24 Gag protein production, wild-type isolate
Type: cell-based
Conditions: Table 4; HIV-1ERS104pre (wt), PHA-PBMs, p24 Gag; read-out: EC50 ± SDs
PROPERTY: EC50

- COC(=O)N[C@@H]1CO[C@@H]2C[C@H](OC(=O)N[C@@H](Cc3ccccc3)[C@H](O)CN(CC(C)C)S(=O)(=O)c3ccc(OC)cc3)C[C@H]12 [Inhibitor 19l]: 29 nM
